Data provenance: ChEMBL document CHEMBL3351523

Procedure details: Cytotoxicity against mock-infected MDBK cells after 48 to 96 hrs by MTT assay
Format: cell-based, Bos taurus
Condition parameters: cattle
For each record, write down the corresponding CC50.
Reply with just the number (in µM).

QUERY: Form field: reported CC50 of `FC(F)(F)c1ccc2c(c1)nc(-c1ccc(Cl)cc1)n2C[C@@H]1CCCN2CCCC[C@H]12`
RESULT: 40

QUERY: Can you handle `CCN(CC)CCCn1c(Cc2ccc(Cl)c(Cl)c2)nc2cc(C(F)(F)F)ccc21` next?
RESULT: 26

QUERY: Can you handle `CCCCn1c(Cc2ccc(Cl)c(Cl)c2)nc2cc(C(F)(F)F)ccc21` next?
RESULT: 11

QUERY: Can you handle `Oc1ccc(-c2nc3cc(C(F)(F)F)ccc3n2C[C@@H]2CCCN3CCCC[C@H]23)cc1` next?
RESULT: 48

QUERY: Can you handle `FC(F)(F)c1ccc2c(c1)nc(Cc1ccc(Br)cc1)n2C[C@@H]1CCCN2CCCC[C@H]12` next?
RESULT: 40

QUERY: Can you handle `O=C1c2ccccc2-n2c(nc3cccnc32)CN1C[C@@H]1CCCN2CCCC[C@H]12` next?
RESULT: 91

QUERY: Can you handle `FC(F)(F)c1ccc2c(c1)nc(CC1=CCCC1)n2C[C@@H]1CCCN2CCCC[C@H]12` next?
RESULT: 50

QUERY: Can you handle `Clc1ccc2nc(-c3ccccc3)n([C@H]3CCCN4CCCC[C@H]34)c2c1` next?
RESULT: 86

QUERY: Can you handle `CCCCn1c(-c2ccc(OC)cc2)nc2cc(C(F)(F)F)ccc21` next?
RESULT: 22
